test system: A549 NSCLC; test: NCI tumour cell line growth inhibition, 48 h
Measured TGI, listed per entry for reference.
Give the value in µM but do not write µM after it.

COMPOUND	UOM	TGI
CC(=O)OC/C=C\Cn1ncc(=O)[nH]c1=O	µM	58.9
CC(O)C1(O)C(O)CC(OC2c3cc4c(c(O)c3[C@@H]3C[C@@]2(C)OC32C=c3cc[nH]c3=N2)C(=O)c2cccc(O)c2C4=O)OC1C (stereo partly drawn)	µM	4.4
Cc1cc(N(CCC#N)CCC#N)ccc1/C(Sc1ccccc1)=C(\NC(=O)/C=C/c1ccccc1)C(=O)Sc1ccccc1	µM	16

Prompt: Read the entry CC1=CP(=O)(OC(C)C)C=C(C)C1=C(Cl)Cl (stereo not drawn) and write its reported TGI.
Response: 97.8

Prompt: Read the entry O=[N+]([O-])c1ccc(C2=NOC(c3ccccc3)N2C23CC4CC(CC(C4)C2)C3)cc1 (stereo not drawn) and write its reported TGI.
Response: 96.7

###

Measured GI50, listed per entry for reference.
test system: MDA-MB-231 breast; assay: NCI tumour cell line growth inhibition, 48 h

Consider the reported GI50 for these molecules:
MOLECULE	GI50
O=C1NC(=NCCc2ccccc2F)S/C1=C\c1ccc2ncccc2c1	16.2 µM
CCCCCCCCCCCCCCCC(=O)OCC1OC(OCCCC)[C@H](O[C@@H]2OC(C)C(OC(=O)CCC)C(O)C2O)C(O)C1O (stereo partly drawn)	14.4 µM

Kindly consider the entry below.
Prompt: Read the entry O=C(O)C1CC[N-]CC1.O=C(O)C1CC[N-]CC1.[NH2-].[NH2-].[Pt+4] and write its reported GI50.
Response: > 100 µM

###

test system: SK-MEL-2 melanoma; assay: NCI tumour cell line growth inhibition, 48 h
*1 amine or outer side, *2 acyl side, *3 side chain or, on linkers, in order; H or OH if unused. Where a SMILES comes first, the peptide text is derived from it. Bridges are numbered along the chain shown (N, C = ends). Roman numbers before positions name the chains, in order. [ ]: non-standard residue; d: D form. Actinocin(1to9) = Cc1c2oc3c(C)ccc(C(=O)[*:2])c3nc-2c(C(=O)[*:1])c(N)c1=O; NMeV = CN[CH](C(=O)O)C(C)C; Sar = CNCC(=O)O
Measured TGI, listed per entry for reference.

Consider the reported TGI for these compounds:
COMPOUND	RECORDED_ENDPOINT	ENDPOINT_RESULT
CN(C)C/C=C/C(=O)Nc1ccc(C(=O)Nc2cccc(Nc3ncc(Cl)c(-c4c[nH]c5ccccc45)n3)c2)cc1	TGI	0.0682 µM
O=c1c2ccccc2nc(-c2ccccc2)n1/N=C/c1ccccc1[N+](=O)[O-]	TGI	> 100 µM
COc1cc2c3c(n(CCCNCCCCN)c(=O)c2cc1OC)-c1cc2c(cc1C3=O)OCO2	TGI	16.4 µM
OCC1NC(CO)C(O)C1O (configuration not stated)	TGI	> 100 µM
NC(N)=NCCCC(Nc1c2ccccc2nc2ccccc12)C(=O)O (configuration not stated)	TGI	> 100 µM

Prompt: Read the entry [CH3][Ge]([CH3])([CH2]CC#N)[S]c1ccccc1 and write its reported TGI.
Response: 39.6 µM

Prompt: Read the entry COc1ccc(/C=C/C(=O)OC2CC34CCNC35CC(OC5(OC)C2OC)c2ccc(OC)c(O)c24)cc1O (configuration not stated) and write its reported TGI.
Response: > 100 µM

Prompt: Read the entry Cc1[nH]c(N)nc(=S)c1CCCNc1ccccc1 and write its reported TGI.
Response: > 100 µM

Prompt: Read the entry Cc1c(Br)c(Br)c2c3c1nc(N1CCNCC1)n3CCC2 and write its reported TGI.
Response: 4.06 µM

Prompt: Read the entry COc1ccc(CC2NC(=O)C(NC(=O)c3c4nc5c(C(=O)NC6C(=O)NC(Cc7ccc(OC)cc7)C(=O)N7CCCC7C(=O)N(C)CC(=O)N(C)C(C(C)C)C(=O)OC6C)ccc(C)c5oc-4c(C)c(=O)c3N)C(C)OC(=O)C(C(C)C)N(C)C(=O)CN(C)C(=O)C3CCCN3C2=O)cc1 (configuration not stated) (I: TY(Me)P[Sar][NMeV] / II: TY(Me)P[Sar][NMeV]; ester I:1-I:C, II:1-II:C; linker I:N-II:N via Actinocin(1to9); configuration not given here) and write its reported TGI.
Response: 0.00549 µM

Prompt: Read the entry O=C1C=C(Nc2cc(Cl)ccc2Cl)c2ccccc2C1=O and write its reported TGI.
Response: 33.9 µM

Prompt: Read the entry O=C1CCC2(c3ccccc3)OCC([C@@H](O)c3ccccc3)N12 (some centres not stated) and write its reported TGI.
Response: > 100 µM
